Target: Human Serotonin Transporter (hSERT) (Homo sapiens, UniProt P31645)
Construct: expressed in transfected cells; membranes prepared from them
Sequence (P31645 whole entry): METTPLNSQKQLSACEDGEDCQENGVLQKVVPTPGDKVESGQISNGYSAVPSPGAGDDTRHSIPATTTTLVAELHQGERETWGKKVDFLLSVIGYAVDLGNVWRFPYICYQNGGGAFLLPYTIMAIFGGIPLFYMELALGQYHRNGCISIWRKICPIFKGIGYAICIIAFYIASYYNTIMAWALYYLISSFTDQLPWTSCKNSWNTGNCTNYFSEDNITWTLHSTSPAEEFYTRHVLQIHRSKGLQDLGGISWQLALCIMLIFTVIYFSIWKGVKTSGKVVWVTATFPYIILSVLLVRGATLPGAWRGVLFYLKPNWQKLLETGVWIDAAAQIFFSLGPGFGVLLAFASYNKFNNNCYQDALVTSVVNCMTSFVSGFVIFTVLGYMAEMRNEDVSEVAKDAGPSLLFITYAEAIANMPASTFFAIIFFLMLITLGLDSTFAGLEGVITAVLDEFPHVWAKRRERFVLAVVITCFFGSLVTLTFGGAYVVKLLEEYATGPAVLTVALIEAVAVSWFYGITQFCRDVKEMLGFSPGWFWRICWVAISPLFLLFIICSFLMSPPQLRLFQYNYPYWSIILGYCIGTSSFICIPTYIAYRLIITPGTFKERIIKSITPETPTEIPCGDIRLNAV
Experiment: Human Serotonin Transporter (hSERT) Scintillation Proximity Assay (SPA), competition with [3H]-Citalopram
Assay type: binding
Details: membranes of HEK-293 cells expressing recombinant hSERT, Ki by Cheng-Prusoff, read-out: pKi SERT (converted)
Kindly apply the following: label 1 if Ki is less than 6 nM, label 0 in every other case.

COMPOUND	EXPERIMENTAL TARGET	CATEGORY
CNCC[C@H](c1ccccc1)c1cc(F)c2[nH]cc(C#N)c2c1	Human Serotonin Transporter (hSERT) (Homo sapiens, UniProt P31645)	label 1
CNCCC(c1ccccc1)c1cc(Cl)c2[nH]ncc2c1 (centres unmarked)	Human Serotonin Transporter (hSERT) (Homo sapiens, UniProt P31645)	label 0
CNCC[C@H](c1ccccc1)c1ccc2[nH]nc(Cl)c2c1	Human Serotonin Transporter (hSERT) (Homo sapiens, UniProt P31645)	label 1
CNCCC(c1ccc2[nH]ccc2c1)c1cccc2ccccc12 (centres unmarked)	Human Serotonin Transporter (hSERT) (Homo sapiens, UniProt P31645)	label 0
CNCCC(c1ccccc1)c1ccc2[nH]cc(S(=O)(=O)N(C)C)c2c1 (centres unmarked)	Human Serotonin Transporter (hSERT) (Homo sapiens, UniProt P31645)	label 0
CNCCC(c1ccccc1)c1ccc2[nH]cc(C(=O)N(C)C)c2c1 (centres unmarked)	Human Serotonin Transporter (hSERT) (Homo sapiens, UniProt P31645)	label 0
CNCCC(c1ccccc1)c1ccc2occc2c1 (centres unmarked) [Compound 141]	Human Serotonin Transporter (hSERT) (Homo sapiens, UniProt P31645)	label 0
NCCC(c1ccc2ncccc2c1)c1ccc2[nH]ccc2c1 (centres unmarked)	Human Serotonin Transporter (hSERT) (Homo sapiens, UniProt P31645)	label 1
CNCCC(c1ccccc1)c1cc(C(F)(F)F)c2[nH]ncc2c1 (centres unmarked)	Human Serotonin Transporter (hSERT) (Homo sapiens, UniProt P31645)	label 0
CNCC[C@@H](c1ccccc1)c1ccc2[nH]nc(Cl)c2c1	Human Serotonin Transporter (hSERT) (Homo sapiens, UniProt P31645)	label 0
Cn1cc(C#N)c2cc(C(CCN)c3ccccc3)cc(F)c21 (centres unmarked)	Human Serotonin Transporter (hSERT) (Homo sapiens, UniProt P31645)	label 0
CNCCC(c1ccccc1)c1cc(OC)c2[nH]cc(C#N)c2c1 (centres unmarked)	Human Serotonin Transporter (hSERT) (Homo sapiens, UniProt P31645)	label 0
CNCCC(c1ccccc1)c1ccc2[nH]cc(C)c2c1 (centres unmarked)	Human Serotonin Transporter (hSERT) (Homo sapiens, UniProt P31645)	label 1
CNCCC(c1ccccc1)c1ccc2[nH]c(C)cc2c1 (centres unmarked)	Human Serotonin Transporter (hSERT) (Homo sapiens, UniProt P31645)	label 0
CNCCC(c1ccccc1)c1cc(OC)c2[nH]ncc2c1 (centres unmarked)	Human Serotonin Transporter (hSERT) (Homo sapiens, UniProt P31645)	label 1
CNCCC(c1ccccc1)c1ccc2[nH]c(C#N)cc2c1 (centres unmarked)	Human Serotonin Transporter (hSERT) (Homo sapiens, UniProt P31645)	label 1
CNCC[C@@H](c1ccccc1)c1cc(OC)c2[nH]ncc2c1	Human Serotonin Transporter (hSERT) (Homo sapiens, UniProt P31645)	label 1
NCCC(c1ccccc1)c1cc(Cl)c2[nH]c(C(N)=O)cc2c1 (centres unmarked)	Human Serotonin Transporter (hSERT) (Homo sapiens, UniProt P31645)	label 0
CNCCC(c1ccccc1)c1ccc2[nH]c(C(N)=O)cc2c1 (centres unmarked)	Human Serotonin Transporter (hSERT) (Homo sapiens, UniProt P31645)	label 0
